assay: Apparent permeability across apical to basolateral side in human Caco2 cells; type: ADME, cell-based; conditions: Caco-2
Recorded measurements of Papp A→B, one per entry

Here is how some molecules turned out for Papp A→B.
| molecule | Papp A→B |
| --- | --- |
| COC(=O)N[C@H](C(=O)NN(Cc1ccc(-c2ccccn2)cc1)C[C@H](OC(=O)[C@@H](NC(=O)OC)C(C)(C)C)[C@@H](N)Cc1ccccc1)C(C)(C)C.Cl.Cl | 2.3 ×10⁻⁶ cm/s |
| COC(=O)N[C@H](C(=O)NN(Cc1ccc(-c2ccccn2)cc1)C[C@H](OC(=O)[C@@H](NC(=O)OC)C(C)(C)C)[C@H](Cc1ccccc1)NC(=O)OC(OC(=O)[C@H](N)C(C)C)C(C)C)C(C)(C)C.Cl.Cl (stereo partly drawn) | < 1.5 ×10⁻⁶ cm/s |

Query: Which value of Papp A→B has been reported for COC(=O)N[C@H](C(=O)NN(Cc1ccc(-c2ccccn2)cc1)C[C@H](OC(=O)[C@@H](NC(=O)OC)C(C)(C)C)[C@H](Cc1ccccc1)NC(=O)OC(OC(=O)[C@@H](N)C(C)C)C(C)C)C(C)(C)C.Cl.Cl (stereo partly drawn) in the records?
Result: < 1.5 ×10⁻⁶ cm/s

---

test system: Rattus norvegicus; assay: Ratio of AUClast in Sprague-Dawley rat at 3 mg/kg, po equiv of atazanavir to AUC in Sprague-Dawley rat assessed as atazanavir at 3 mg/kg, po equiv of atazanavir; format: ADME, organism-based; conditions: in vivo
quantity-kind: Ratio AUC

Here is how some molecules turned out for Ratio AUC.
| molecule | Ratio AUC |
| --- | --- |
| COC(=O)N[C@H](C(=O)NN(Cc1ccc(-c2ccccn2)cc1)C[C@H](OC(=O)[C@@H](NC(=O)OC)C(C)(C)C)[C@H](Cc1ccccc1)NC(=O)OC(OC(=O)[C@H](N)C(C)C)C(C)C)C(C)(C)C.Cl.Cl (some centres undefined) | 50.5 |
| COC(=O)N[C@H](C(=O)NN(Cc1ccc(-c2ccccn2)cc1)C[C@H](OC(=O)[C@@H](NC(=O)OC)C(C)(C)C)[C@@H](N)Cc1ccccc1)C(C)(C)C.Cl.Cl | 4.9 |

[A] COC(=O)N[C@H](C(=O)NN(Cc1ccc(-c2ccccn2)cc1)C[C@H](OC(=O)[C@@H](NC(=O)OC)C(C)(C)C)[C@H](Cc1ccccc1)NC(=O)OCc1oc(=O)oc1C)C(C)(C)C
[B] COC(=O)N[C@H](C(=O)NN(Cc1ccc(-c2ccccn2)cc1)C[C@H](OC(=O)[C@@H](NC(=O)OC)C(C)(C)C)[C@H](Cc1ccccc1)NC(=O)OC(OC(=O)[C@@H](N)C(C)C)C(C)C)C(C)(C)C.Cl.Cl (some centres undefined)
Query: // select label with min value of measured Ratio AUC from [ A , B ] // return label of chosen record
Result: A
(A: 0.1, B: 3.4)

---

experiment: Tmax in Sprague-Dawley rat at 3 mg/kg, po after 0.25 to 24 hrs by UPLC/MS/MS method; format: ADME, organism-based; conditions: in vivo
quantity-kind: Tmax (min)
Express the result in min but write the number alone.

Query: Which value of Tmax has been reported for COC(=O)N[C@H](C(=O)N[C@@H](Cc1ccccc1)[C@@H](O)CN(Cc1ccc(-c2ccccn2)cc1)NC(=O)[C@@H](NC(=O)OC)C(C)(C)C)C(C)(C)C in the records?
Result: 30

---

tested on: Rattus norvegicus; assay: Cmax in Sprague-Dawley rat at 3 mg/kg, po after 0.25 to 24 hrs by UPLC/MS/MS method; format: ADME, organism-based; set-up: dose 3 mg/kg, route oral; conditions: in vivo
quantity-kind: Cmax (nM)
Express the result in nM but write the number alone.

Query: Which value of Cmax has been reported for COC(=O)N[C@H](C(=O)N[C@@H](Cc1ccccc1)[C@@H](O)CN(Cc1ccc(-c2ccccn2)cc1)NC(=O)[C@@H](NC(=O)OC)C(C)(C)C)C(C)(C)C [ATAZANAVIR] in the records?
Result: 266

---

assay: Solubility of the compound in phosphate buffer at pH 6.5 at 25 degC by UPLC method; type: physicochemical
quantity-kind: solubility (µg/mL)

[P] COC(=O)N[C@H](C(=O)NN(Cc1ccc(-c2ccccn2)cc1)C[C@H](OC(=O)[C@@H](NC(=O)OC)C(C)(C)C)[C@H](Cc1ccccc1)NC(=O)OC(OC(=O)[C@H](N)C(C)C)C(C)C)C(C)(C)C.Cl.Cl (some centres undefined)
[Q] COC(=O)N[C@H](C(=O)NN(Cc1ccc(-c2ccccn2)cc1)C[C@H](OC(=O)[C@@H](NC(=O)OC)C(C)(C)C)[C@H](Cc1ccccc1)NC(=O)OC(OC(=O)[C@@H](N)C(C)C)C(C)C)C(C)(C)C.Cl.Cl (some centres undefined)
Query: // select label with min value of measured solubility from [ P , Q ] // return label of chosen record
Result: Q

---

assay: Half life of the compound in phosphate buffer at pH 6.5 at 37 degC after 24 hrs by UPLC method; assay type: physicochemical
quantity-kind: half-life (h)

| compound | measurement-units | observed-result |
| --- | --- | --- |
| COC(=O)N[C@H](C(=O)NN(Cc1ccc(-c2ccccn2)cc1)C[C@H](OC(=O)[C@@H](NC(=O)OC)C(C)(C)C)[C@H](Cc1ccccc1)NC(=O)OCc1oc(=O)oc1C)C(C)(C)C | h | 120 |
| COC(=O)N[C@H](C(=O)NN(Cc1ccc(-c2ccccn2)cc1)C[C@H](OC(=O)[C@@H](NC(=O)OC)C(C)(C)C)[C@@H](N)Cc1ccccc1)C(C)(C)C.Cl.Cl | h | 6.6 |

[P] COC(=O)N[C@H](C(=O)NN(Cc1ccc(-c2ccccn2)cc1)C[C@H](OC(=O)[C@@H](NC(=O)OC)C(C)(C)C)[C@H](Cc1ccccc1)NC(=O)OCOC(=O)[C@@H](N)C(C)C)C(C)(C)C.Cl.Cl
[Q] COC(=O)N[C@H](C(=O)NN(Cc1ccc(-c2ccccn2)cc1)C[C@H](OC(=O)[C@@H](NC(=O)OC)C(C)(C)C)[C@H](Cc1ccccc1)NC(=O)OC(OC(=O)[C@@H](N)C(C)C)C(C)C)C(C)(C)C.Cl.Cl (stereo partly specified)
[R] COC(=O)N[C@H](C(=O)NN(Cc1ccc(-c2ccccn2)cc1)C[C@H](OC(=O)[C@@H](NC(=O)OC)C(C)(C)C)[C@H](Cc1ccccc1)NC(=O)OC(OC(=O)[C@H](N)C(C)C)C(C)C)C(C)(C)C.Cl.Cl (stereo partly specified)
Query: rank_up(items): orders items by reported half-life in ascending numerical order. Your reply should list the labels following the order given in the request.
Result: P, Q, R
(P: 6.6 h, Q: 108 h, R: 215 h)

---

test system: Rattus norvegicus; assay: Tmax in Sprague-Dawley rat assessed as atazanavir at 3 mg/kg, po equiv of atazanavir after 0.25 to 24 hrs by UPLC/MS/MS method; format: ADME, organism-based; details: in vivo
quantity-kind: Tmax (h)

| compound | Tmax [h] |
| --- | --- |
| COC(=O)N[C@H](C(=O)NN(Cc1ccc(-c2ccccn2)cc1)C[C@H](OC(=O)[C@@H](NC(=O)OC)C(C)(C)C)[C@H](Cc1ccccc1)NC(=O)OCc1oc(=O)oc1C)C(C)(C)C | 1.3 |

[a] COC(=O)N[C@H](C(=O)NN(Cc1ccc(-c2ccccn2)cc1)C[C@H](OC(=O)[C@@H](NC(=O)OC)C(C)(C)C)[C@@H](N)Cc1ccccc1)C(C)(C)C.Cl.Cl
[b] COC(=O)N[C@H](C(=O)NN(Cc1ccc(-c2ccccn2)cc1)C[C@H](OC(=O)[C@@H](NC(=O)OC)C(C)(C)C)[C@H](Cc1ccccc1)NC(=O)OC(OC(=O)[C@@H](N)C(C)C)C(C)C)C(C)(C)C.Cl.Cl (stereo partly drawn)
Query: Which of the two items, a and b , has the greater recorded Tmax? // return label of chosen record
Result: b
